Data provenance is PubChem BioAssay (NCI).

# System: HS 578T breast
# Assay overview: NCI-60 one-dose screen, 48 h (100 = growth as untreated, 0 = no growth, -100 = all killed)
# Experimental parameters: 10 µM unless noted
Compounds without any hit were thinned out: in the full panel of roughly 83,000, 20% have a hit.
Simple rule here: growth less than 40% is y, otherwise n.

I wonder whether Cc1cc(C)cc(NC(=O)Cn2cc(COn3nnc4ccccc43)nn2)c1 has growth below 40%. Can you tell?
n

Strictly below 40%: is that where growth of O=C1NC(=O)c2c1c1c3cc(Br)ccc3[nH]c1c1oc3ccc(F)cc3c21 sits?
y

Hi there! Is growth for Nc1n[nH]c2cccc(C#Cc3cccc(NC(=O)c4cccc(Cl)c4)c3)c12 below 40%, do you know?
n

Hi there! Is growth for COc1ccc(C(SCCNCc2cc(N(C)C)ccn2)(c2ccccc2)c2ccccc2)cc1 below 40%, do you know?
y

State whether 40% exceeds growth recorded for C#C[C@]1(O)CC[C@H]2[C@@H]3CC=C4c5sc(-c6ccc(O)c(O)c6)nc5CC[C@]4(C)[C@H]3CC[C@@]21C .
y

Here's an entry: CCCCn1c(O)c(N=Nc2nc(-c3cc4ccccc4oc3=O)cs2)c2cc(Br)ccc21 . Is its growth below 40%?
n

I wonder whether CC1CN(c2oc(-c3ccc([N+](=O)[O-])cc3)nc2C#N)CC(C)O1 (centres undefined) has growth below 40%. Can you tell?
n

For c1ccc(-c2csc(Nc3cccc(Nc4nc(-c5ccccc5)cs4)c3)n2)cc1 , is the recorded growth below the cut-off of 40%?
n

Given COc1ccc(N2N=C(c3ccc4c(c3)OCO4)CC2c2cccc(NC(=O)CCNS(=O)(=O)c3ccc(Cl)cc3)c2)cc1 (centres undefined) , is recorded growth strictly lower than 40%?
y

###

# Test system: HT29 colon
# Assay overview: NCI-60 one-dose screen, 48 h (100 = growth as untreated, 0 = no growth, -100 = all killed)
# Experimental parameters: 10 µM unless noted
Compounds without any hit were thinned out: in the full panel of roughly 83,000, 20% have a hit.
Please note: true (1) applies when growth is 80% or greater, and false (0) applies otherwise.

Is reported growth greater than or equal to 80% here: Cn1cc(-c2nnc(N)nc2-c2c[nH]c3ccccc23)c2cccnc21
false (0)

Check the entry O=C(O)c1cccc(-c2ccc(/C=N/NC(=O)c3[nH]c4ccc(Br)cc4c3-c3ccccc3)s2)c1 : does growth equal or exceed 80%?
false (0)

Can CC12CC[C@@H]3[C@]4(C)COC(c5c(F)cccc5F)O[C@@H]4CC[C@@]3(C)[C@@H]1CC(C1=CCOC1=O)O2 (stereo not given in full) be said to have growth at or above 80%?
false (0)

Could you please find out whether CCCCCCCCc1ccc(C(=O)Nc2cccc(P(=O)(O)O)c2)cc1 has growth that meets 80% or exceeds it?
true (1)

Please check the record COc1cc(C2CC(c3cc(OC)c(OC)c(OC)c3)=NN2C(C)=O)ccc1OCc1ccccc1 (stereo not given) and state if its growth is at or above 80%.
false (0)

###

# Tested on: OVCAR-3 ovarian
# Assay overview: NCI-60 one-dose screen, 48 h (100 = growth as untreated, 0 = no growth, -100 = all killed)
# Experimental parameters: 10 µM unless noted
Compounds without any hit were thinned out: in the full panel of roughly 83,000, 20% have a hit.
What growth was measured for each of the following?
Please reply with the bare figure in % and do not write the unit itself.

Query growth on OVCAR-3 ovarian for COc1cc2nc(SCc3ccccc3)n(-c3ccc(Cl)cc3)c(=O)c2cc1OC
-42.6

Requested read-out growth, target or system OVCAR-3 ovarian, entry CN(C)c1nc(NCCNS(=O)(=O)c2ccc(C3=Nc4c(N)nc(N)nc4NC(c4ccc(C(F)(F)F)cc4)C3)cc2)nc(Nc2ccc(F)cc2)n1 (configuration not stated)
23

growth of Cc1ccc(NCC(=O)Cn2cc(COc3ccc(C=Nc4cnc5ccccc5c4)cc3)nn2)cc1 on OVCAR-3 ovarian?
139

Param readout = growth; param system = OVCAR-3 ovarian; param query = Cc1cc(C)n(-c2ccc3nnc(-c4ccccc4)n3n2)n1 ; response: value
91.6

Notebook entry, OVCAR-3 ovarian assay: growth of C=C1CCC2C3(C)COC(c4cccs4)OC3CCC2(C)C1CC(Sc1ccccc1)C1=CCOC1=O (configuration not stated) = ?
86.1

Under OVCAR-3 ovarian: growth value of CCN(CC)C(=O)N/C(N)=N/c1nc2ccccc2s1 ?
68.2

growth of CC12CC[C@@H]3[C@]4(C)COC(c5c(F)cccc5F)O[C@@H]4CC[C@@]3(C)[C@@H]1CC(C1=CCOC1=O)O2 (some centres not stated) on OVCAR-3 ovarian?
88.1

Query growth on OVCAR-3 ovarian for COc1ccc(NC(=O)[C@H](CO)NC(=O)OC(C)(C)C)cc1C(=O)Nc1cccc(C2CC(=O)c3c(cc(OC)c(OC)c3OC)O2)c1 (some centres not stated)
47.7

Give OVCAR-3 ovarian growth for CCCn1cc(-c2nc(Nc3ccc(C(=O)NCCCCNc4cccc5c4C(=O)N(C4CCC(=O)NC4=O)C5=O)cc3)nc3[nH]ccc23)cn1 (configuration not stated)
36.3

growth of C=C1CC[C@@H]2[C@]3(C)COC(c4cn[nH]c4-c4ccc(F)cc4)O[C@@H]3CC[C@@]2(C)[C@@H]1C/C=C1/C(=O)OCC1O (some centres not stated) on OVCAR-3 ovarian?
-68.6

Give growth (OVCAR-3 ovarian) of the following compound: N#Cc1c(-c2cccc(O)c2O)cc(-c2ccc3ccccc3c2)[nH]c1=O
18.9

Could you share what growth was measured for COc1cc(-c2ccc(/C=N/NC(=O)c3[nH]c4ccc(Br)cc4c3-c3ccccc3)s2)cc(OC)c1OC , tested on OVCAR-3 ovarian?
107

What reported growth corresponds to N/C(=N\c1nc2ccccc2s1)NC(=O)Nc1c(Cl)cccc1Cl on OVCAR-3 ovarian?
28.2

Short answer please: growth, OVCAR-3 ovarian, entry Clc1cccc(N/N=C/c2c[nH]c3ccc(Br)cc23)n1
18.6

Fill in the recorded growth for this compound, with OVCAR-3 ovarian as test system: COc1cc2c(c(OC)c1OC)C(=O)CC(c1cccc(NC(=O)c3cc(NC(=O)[C@H](C)N)ccc3Cl)c1)O2 (some centres not stated)
25.7

What value of growth on OVCAR-3 ovarian does CC12CC[C@@H]3[C@]4(C)COC(c5cn[nH]c5-c5ccc(Br)cc5)O[C@@H]4CC[C@@]3(C)[C@@H]1CC(C1=CCOC1=O)O2 (some centres not stated) have?
56

Short answer please: growth, OVCAR-3 ovarian, entry C#CCOc1cc(N(CC)CC)ccc1C(C(=O)NC(C)(C)C)N(C(=O)C1CCc2cc(F)ccc2O1)c1ccccc1F (configuration not stated)
33.1

###

# System: SK-MEL-28 melanoma
# Assay overview: NCI-60 one-dose screen, 48 h
# Experimental parameters: 10 µM unless noted
Compounds without any hit were thinned out: in the full panel of roughly 83,000, 20% have a hit. Active and inactive are the calls of the source. How the source made its calls: active means growth percent below 10; inactive means the rest.
Bench note: report the call from yes (1) = active, no (0) = inactive

Could you kindly confirm the outcome this assay logged for Cn1cc(-c2cc3nc(-c4c[nH]c5ccc(Br)cc45)cc(N)n3n2)c2ccccc21 ?
yes (1)

Per the records of this test, what outcome belongs to Cc1cc2nc3c4ccccc4n(CCCN(C)C)c3nc2cc1C ?
yes (1)

Recorded test call requested for O=C(/C=C/Nc1ccc2oc(=O)ccc2c1)c1cc2cc(Br)ccc2oc1=O
no (0)

So what was the verdict on Cn1cc(-c2cc(N)n3nc(-c4cn(C)c5ncc(Br)cc45)cc3n2)c2cc(Br)cnc21 in this test?
yes (1)

Per the records of this test, what outcome belongs to NS(=O)(=O)c1ccc(CCNC(=O)CSc2ccc(-c3ccc(Br)cc3)nn2)cc1 ?
no (0)

What did this assay record as the result for Cn1cc(-c2cc3nc(-c4cn(C)c5ncc(Br)cc45)cc(N)n3n2)c2cc(Cl)ccc21 ?
yes (1)

Give the logged outcome of this assay for the following compound: CCCCc1c(Nn2cnnn2)no[n+]1[O-]
no (0)

Look up the recorded call for CC(C)c1sc(NC(=O)c2cc(NC(=O)c3cc(NC(=O)c4nccn4C)cn3C)cn2C)nc1C(=O)NCCCN(C)C in this test.
no (0)

Can you look up the reported call for COc1ccc(-c2ccnc(SCc3cc4ccccc4[nH]c3=O)n2)cc1OC for me?
yes (1)

Please state the recorded outcome for this compound: COc1ccc(-c2nnc3ccc(N/N=C/c4ccc(C)cc4)nn23)cc1
no (0)

Would you mind telling me which call this test gave CCCSc1nc(Nc2ccc(S(N)(=O)=O)cc2)c(C#N)c(-c2cc(OC)c(OC)c(OC)c2)n1 ?
no (0)

Returns: the outcome recorded for CC(=O)Nc1cccc(-c2nc3cc(-c4ccc(O)cc4)ccc3n2C)c1 in this assay.
no (0)

Dear all, I need the recorded test outcome for COC(OC)C1=C(C)OC(N)=C(C#N)C12C(=O)Nc1ccccc12 (stereo not drawn) , thank you.
no (0)

Could you check what this test reported for Cc1ccc(C(=O)C(c2c[nH]c3ccccc23)c2c[nH]c3ccccc23)cc1 ?
no (0)

Outcome logged for N/C(=N\c1nc2ccccc2s1)NC(=O)NCCCCCCO in this assay:
no (0)

What did the test return for COc1cc2nc(SCc3ccccc3)n(-c3ccc(Cl)cc3)c(=O)c2cc1OC ?
no (0)

Tell me the assay call for N#Cc1c(-c2ccc(Cl)cc2)nc2n[nH]c(-c3ccc(Cl)cc3)c2c1-c1ccc(C(F)(F)F)cc1 please.
yes (1)

Which result was noted for this compound in the test: C=C1CC[C@@H]2[C@]3(C)COC(c4ccco4)O[C@@H]3CC[C@@]2(C)[C@@H]1C/C=C1/C(=O)OCC1OC(C)=O (stereo partly drawn)
no (0)

I'd appreciate the recorded outcome for C#CCOc1ccc(/C=N/Nc2nc(-c3ccc(Cl)cc3)cs2)cc1OC from this test.
no (0)

What outcome does the record of this test show for Cc1cc2nc3c4ccccc4n(CC4=NCCN4)c3nc2cc1C ?
yes (1)

Recorded test outcome, item C/C(=N\N=C\c1cc([N+](=O)[O-])ccc1Cl)c1ccc2c(c1)Nc1ccccc1S2
no (0)

Could you please tell me the result logged for N#Cc1ccc(/C=N/NC(=O)c2[nH]c3ccc(Br)cc3c2-c2ccccc2)o1 in this assay?
no (0)

Entry COCOc1ccc2c(=O)c(C)c(C(=O)N[C@@H](Cc3ccccc3)C(O)C(=O)NCCc3ccc(OC)cc3)oc2c1 (stereo partly drawn) : call = ?
no (0)

For this compound, state the assay outcome: O=C(CCN1C(=O)/C(=C/c2ccc(F)cc2)SC1=S)N1CCOCC1
no (0)

Give the logged outcome of this assay for the following compound: COc1ccc2c(c1)c(-c1cc(N)n3nc(-c4cn(C)c5ccccc45)cc3n1)cn2C
yes (1)

Recorded call for Cn1cc(-c2cc(N)n3nc(-c4c[nH]c5ccccc45)cc3n2)c2cccnc21 ?
yes (1)

Which result was noted for this compound in the test: COc1cc2oc(-c3cccc(C(=O)Nc4ccc(Cl)cc4)c3)cc(=O)c2c(OCC(=O)N[C@@H](Cc2ccccc2)C(=O)O)c1OC
no (0)

How did this test come out for CC(=O)Oc1ccccc1C(=O)[Se]C(=NC1CCCCC1)NC1CCCCC1 ?
yes (1)

Each compound tested received a call. Report the one for COCOc1cc2c(=O)c(C)c(C(=O)N[C@@H](Cc3ccccc3)C(O)C(=O)NCc3ccccc3)oc2cc1OC (stereo partly drawn) .
no (0)

State the result this test recorded for COc1ccc(NC(=O)Cn2c3c(sc2=O)[C@H]2[C@@H](O)[C@@H](O)[C@H](O)[C@@H]2CS3)cc1 .
no (0)

Test call, this compound: CCCCSc1nc(Nc2ccc(S(N)(=O)=O)cc2)c(C#N)c(-c2ccc(Cl)cc2)n1
no (0)

So what was the verdict on COc1ccc(C(=O)/C=C/c2cccc3ccccc23)cc1S(N)(=O)=O in this test?
yes (1)

Fill in: this test's call for COc1ccc(C(=O)/C=C/c2ccc3ccccc3c2)cc1S(N)(=O)=O is ___
yes (1)

Entry COc1ccc(-c2c(Nn3cnnn3)no[n+]2[O-])cc1 : call = ?
no (0)

// param item: CC(=O)Nc1ccc(-n2cnc3cc(-c4ccc(O)cc4)ccc32)cc1C(F)(F)F ; yields the recorded call
no (0)

Field: outcome | Entry: CCOC(=O)C1=C(N)N(c2ccccc2)C2=C(C(=O)CC(C)(C)C2)C1c1cccc(Cl)c1Cl (stereo not drawn)
no (0)

How was CC(C)CSc1nc(NCCc2c[nH]c3ccccc23)c(C#N)c(-c2ccc(Cl)cc2)n1 classified in this test?
no (0)

For CN(C)c1ccnc(CNCCSC2(c3ccccc3)c3ccccc3C=Cc3ccccc32)c1 , which call appears in the assay record?
yes (1)
